target: T1, Anti-CD28 Fab (SEQ ID NOs: 696, 697); experiment: phage binding ELISA; biotinylated anti-CD28 Fab on neutravidin plate, clonal phage supernatant, anti-M13 HRP detection
T1 construct: In the phage ELISA the Fab was biotinylated and captured on neutravidin coated plates
T1 sequence (VH, as listed by the source, chain 1 of 2): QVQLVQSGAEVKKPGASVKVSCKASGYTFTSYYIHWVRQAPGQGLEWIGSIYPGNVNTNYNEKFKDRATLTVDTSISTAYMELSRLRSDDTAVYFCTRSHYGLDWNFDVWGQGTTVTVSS
T1 sequence (VL, as listed by the source, chain 2 of 2): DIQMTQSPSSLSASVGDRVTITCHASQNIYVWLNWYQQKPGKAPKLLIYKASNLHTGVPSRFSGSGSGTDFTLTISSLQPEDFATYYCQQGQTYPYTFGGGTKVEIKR
Where no end group is shown, it is not given here.
// Anti-CD28 Fab signal (phage binding ELISA) lookup, one value per entry

IN: Return Anti-CD28 Fab signal (phage binding ELISA) (reported value) for this binder: YCDGHLPMYMKKCL (cysteine pairing not given here; also: displayed fused to phage pIII protein, fusion end and linker not given here, Clonal phage of the peptide-87 library, tested as crude supernatant; not shown: fused to the pIII filament protein of the bacteriophage) [Phage-983]
OUT: 1.57

IN: Return Anti-CD28 Fab signal (phage binding ELISA) (reported value) for this binder: YCAGHSEEYMDKCL (cysteine pairing not given here; also: displayed fused to phage pIII protein, fusion end and linker not given here, Clonal phage of the peptide-87 library, tested as crude supernatant; not shown: fused to the pIII filament protein of the bacteriophage) [Phage-989]
OUT: 1.55

Further cases:
IN: Return Anti-CD28 Fab signal (phage binding ELISA) (reported value) for this binder: YCAGHDQQYMEKCL (cysteine pairing not given here; also: displayed fused to phage pIII protein, fusion end and linker not given here, Clonal phage of the peptide-87 library, tested as crude supernatant; not shown: fused to the pIII filament protein of the bacteriophage) [Phage-993]
OUT: 1.55

IN: Return Anti-CD28 Fab signal (phage binding ELISA) (reported value) for this binder: YCDGHSQEYMAHCL (cysteine pairing not given here; also: displayed fused to phage pIII protein, fusion end and linker not given here, Clonal phage of the peptide-87 library, tested as crude supernatant; not shown: fused to the pIII filament protein of the bacteriophage) [Phage-986]
OUT: 1.56

Data provenance is patent US20260242478A1.
